Test system: Pseudomonas aeruginosa
Assay: Bactericidal activity against Pseudomonas aeruginosa isolate 1 with AMP-CFZ-CIP-CTX-CXM-GEN-LVX-SXT-TET resistance phenotype assessed as concentration required for >= 3 log10 CFU/ml reduction in viable bacteria in sodium phosphate buffer at pH 7.4 after 1.5 hrs by liquid microdilution assay
Type: functional
Activity values by entry
Measured Endpoint: Activity (µM)

                                  substance  reported_value
0  H-IIGPVLGLVGSALGGLLKKI-NH2 [BOMBININ H2]              16
1                       H-LLPIVGNLLKSLL-NH2              48
2          H-FFPVIGRILNGIL-NH2 [TEMPORIN G]              48
3          H-FLPLIGRVLSGIL-NH2 [TEMPORIN A]              48
4                  H-GIFSKLAGKKLKNLLISG-NH2               1

* * *

Tested on: Stenotrophomonas maltophilia
Test: Bactericidal activity against Stenotrophomonas maltophilia isolate 2 with AMK-CIP-CTX-IPM-MEM-SAM-TZP resistance phenotype assessed as concentration required for >= 3 log10 CFU/ml reduction in viable bacteria in sodium phosphate buffer at pH 7.4 after 1.5 hrs by liquid microdilution assay
Type: functional
Measured Endpoint: Activity (µM)

In [3]: df
Out[3]:
                                  substance  reported_value
0                       H-LLPIVGNLLKSLL-NH2               3
1          H-FFPVIGRILNGIL-NH2 [TEMPORIN G]               3
2  H-IIGPVLGLVGSALGGLLKKI-NH2 [BOMBININ H2]               4
3          H-FLPLIGRVLSGIL-NH2 [TEMPORIN A]              12
4                  H-GIFSKLAGKKLKNLLISG-NH2             0.5
